- target: KRAS G12S (Homo sapiens (Human), UniProt P01116+P62937, G12S)
- Sequence (P01116 other isoform, or with tags, fused parts or gaps G12S): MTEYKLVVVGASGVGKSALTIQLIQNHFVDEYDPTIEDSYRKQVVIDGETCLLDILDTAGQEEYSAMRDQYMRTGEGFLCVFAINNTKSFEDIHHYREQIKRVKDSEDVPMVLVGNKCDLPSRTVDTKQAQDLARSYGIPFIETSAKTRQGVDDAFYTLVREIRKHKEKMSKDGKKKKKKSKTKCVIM
- Sequence (P62937 whole entry): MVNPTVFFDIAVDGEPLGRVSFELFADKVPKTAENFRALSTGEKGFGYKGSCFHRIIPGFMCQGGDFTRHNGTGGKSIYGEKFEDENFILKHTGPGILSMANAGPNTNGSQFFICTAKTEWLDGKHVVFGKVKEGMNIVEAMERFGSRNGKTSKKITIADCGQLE
- test.summary: Ras-Raf disruption/FRET/MOA assay (BRAF RBD, Cyclophilin A)
- Assay type: biochemical
- conditions.used: read-out: KRAS G12S FRET IC50
// reported IC50 for each item listed

**Query** Give the reported value of IC50 for this record: CCn1c(-c2cccnc2[C@H](C)OC)c2c3cc(ccc31)-c1csc(n1)C[C@H](NC(=O)[C@H](C(C)C)N(C)C(=O)N1CCO[C@@H](c3ccccc3)C1)C(=O)N1CCC[C@H](N1)C(=O)OCC(C)(C)C2
**Result** 100 to 1000 nM
